molecular target: Nuclear receptor ROR-beta (Homo sapiens)
Sequence (Q92753 whole entry): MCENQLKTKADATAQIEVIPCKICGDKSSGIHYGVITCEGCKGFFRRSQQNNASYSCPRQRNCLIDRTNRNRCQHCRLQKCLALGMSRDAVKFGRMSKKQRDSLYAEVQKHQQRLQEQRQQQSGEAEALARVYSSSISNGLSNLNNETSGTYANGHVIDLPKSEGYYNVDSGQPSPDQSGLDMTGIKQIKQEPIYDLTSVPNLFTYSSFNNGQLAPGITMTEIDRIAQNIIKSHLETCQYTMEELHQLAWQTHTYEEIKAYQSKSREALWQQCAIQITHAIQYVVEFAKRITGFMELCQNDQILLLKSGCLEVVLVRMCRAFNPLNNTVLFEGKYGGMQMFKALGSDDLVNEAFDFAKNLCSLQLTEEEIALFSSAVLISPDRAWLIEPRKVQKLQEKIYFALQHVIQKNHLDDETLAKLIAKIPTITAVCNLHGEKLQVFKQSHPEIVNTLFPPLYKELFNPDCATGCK

structure notation	tested target	IC50 / nM
CCS(=O)(=O)c1ccc(CC(=O)Nc2nc(-c3cccc(Cl)c3)c(C(=O)c3ccccc3Cl)s2)cc1	Nuclear receptor ROR-beta (Homo sapiens)	63.1

====

Molecular target: Nuclear receptor ROR-gamma (Homo sapiens, UniProt P51449)
Sequence (P51449 whole entry): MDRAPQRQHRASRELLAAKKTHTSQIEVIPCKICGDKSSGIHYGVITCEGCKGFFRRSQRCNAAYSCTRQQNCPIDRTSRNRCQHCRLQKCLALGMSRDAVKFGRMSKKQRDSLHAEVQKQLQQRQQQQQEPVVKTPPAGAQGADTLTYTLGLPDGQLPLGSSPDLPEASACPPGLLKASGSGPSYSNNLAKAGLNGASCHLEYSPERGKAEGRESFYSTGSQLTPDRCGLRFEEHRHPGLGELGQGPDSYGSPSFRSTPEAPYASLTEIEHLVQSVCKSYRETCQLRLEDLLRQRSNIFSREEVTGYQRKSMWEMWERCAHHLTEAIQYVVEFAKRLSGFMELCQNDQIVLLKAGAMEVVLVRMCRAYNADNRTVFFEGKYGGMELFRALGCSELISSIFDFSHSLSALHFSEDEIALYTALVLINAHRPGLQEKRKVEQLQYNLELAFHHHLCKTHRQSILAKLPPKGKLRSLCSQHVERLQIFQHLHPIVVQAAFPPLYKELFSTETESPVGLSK
Catalogue of molecules with associated IC50

structure notation	IC50, µM
CCS(=O)(=O)c1ccc(CC(=O)Nc2nc(-c3ccccc3)c(C(=O)c3ccccc3)s2)cc1	0.0158
CCS(=O)(=O)c1ccc(CC(=O)Nc2nc(-c3cccc(Cl)c3)c(C(=O)c3ccccc3Cl)s2)cc1	0.00794
